Tested on: A549/ATCC NSCLC
experiment_notes: NCI-60 one-dose screen, 48 h (100 = growth as untreated, 0 = no growth, -100 = all killed)
condition_context: 10 µM unless noted
About 83,000 compounds went through this panel and 20% of them were active in at least one assay; those are over-represented in the sample as a whole.
Would you mind telling me the reported growth of each entry?
One number for each entry, in %.

Solved entries (count: 4):
Task item: Which measured growth value corresponds to COc1ccc(CN2C(=O)/C(=C/c3nc(CO)cs3)SC2=S)cc1 ?
Reply: 95.7

Task item: Which measured growth value corresponds to COc1cc2oc(-c3cccc(NC(=O)c4cc(NC(=O)[C@H](C)NC(=O)OC(C)(C)C)ccc4C)c3)cc(=O)c2c(OC)c1OC ?
Reply: 80.5

Task item: Which measured growth value corresponds to CN(C)C(=O)c1ccccc1-n1cnc2ccccc2c1=O ?
Reply: 99.2

Task item: Which measured growth value corresponds to CNC(=O)c1cc(Oc2ccc3nc(NC(=O)c4ccc(CN5CCCN(C)CC5)c(C(F)(F)F)c4)sc3c2)ccn1 ?
Reply: 39.9

// for each compound in input: emit growth
1. O=C(Cn1cc(CN2C(=O)c3ccc([N+](=O)[O-])cc3C2=O)nn1)Nc1ccccc1Br
2. O=C(CCCCCCN1CC(=O)N2[C@@H](c3ccc(Cl)c(F)c3)c3[nH]c4ccccc4c3C[C@H]2C1=O)NO
3. CCOC(=O)c1c(NCC(=O)Nc2cccc([N+](=O)[O-])c2)sc2c1CCCC2

Reply:
[108, 104, -13.8]

// for each compound in input: emit growth
1. CCOC(=O)c1c(NC(=O)c2cccc(C(F)(F)F)c2)sc2c(CN3CCN(C)CC3)c(O)ccc12
2. N#C/C(=C\c1ccc(Cl)cc1Cl)C(N)=O

Reply:
1: 32; 2: 109
